system: Klebsiella pneumoniae ATCC 10 031
We label by threshold. Values of MIC strictly beneath 4 µg/mL are yes. Values of 4 µg/mL and up are no.

{"compound": "CC1(C)S[C@@H]2[C@H](NC(=O)[C@H](NC(=O)Nc3cnccc3O)c3ccccc3)C(=O)N2[C@H]1C(=O)O [C, reference compound]", "qualitative.label": "no"}
{"compound": "CC1(C)SC2C(NC(=O)C(NC(=O)Nc3cnc(Nc4ccc(S(N)(=O)=O)c(O)c4)nc3O)c3ccccc3)C(=O)N2C1C(=O)O (stereo not shown) [Verbindung 45]", "qualitative.label": "yes"}
{"compound": "CC1(C)S[C@@H]2[C@H](NC(=O)[C@H](NC(=O)Nc3cnc(Nc4ccc(S(N)(=O)=O)cc4)nc3O)c3cccs3)C(=O)N2[C@H]1C(=O)O [Verbindung 2]", "qualitative.label": "yes"}
{"compound": "CC1(C)S[C@@H]2[C@H](NC(=O)C(NC(=O)Nc3cnc(NCc4ccccc4)nc3O)c3ccccc3)C(=O)N2[C@H]1C(=O)O (stereo partly shown) [Verbindung 61]", "qualitative.label": "yes"}
{"compound": "CN(C)S(=O)(=O)c1ccc(Nc2ncc(NC(=O)N[C@@H](C(=O)N[C@@H]3C(=O)N4[C@@H]3SC(C)(C)[C@@H]4C(=O)O)c3ccc(O)cc3)c(O)n2)cc1 [Verbindung 15]", "qualitative.label": "yes"}

* * *

system: Proteus mirabilis Hamburgensis
Recorded MIC, one value per entry.

{"compound": "CC1(C)SC2C(NC(=O)C(NC(=O)Nc3cnc(Nc4ccc(NC(N)=O)cc4)nc3O)c3ccc(O)cc3)C(=O)N2C1C(=O)O (stereo not drawn)", "system.name": "Proteus mirabilis Hamburgensis", "MIC [µg/mL]": 0.06}
{"compound": "CC1(C)SC2C(NC(=O)C(NC(=O)Nc3cnc(Nc4ccc(S(C)(=O)=O)cc4)nc3O)c3ccc(O)c(Cl)c3)C(=O)N2C1C(=O)O (stereo not drawn)", "system.name": "Proteus mirabilis Hamburgensis", "MIC [µg/mL]": 0.12}
{"compound": "CC1(C)S[C@@H]2[C@H](NC(=O)C(NC(=O)Nc3cnc(Nc4ccc(C(N)=O)c(C(N)=O)c4)nc3O)c3ccc(O)cc3)C(=O)N2[C@H]1C(=O)O (stereo partly drawn)", "system.name": "Proteus mirabilis Hamburgensis", "MIC [µg/mL]": 0.12}
{"compound": "CC1(C)S[C@@H]2[C@H](NC(=O)C(NC(=O)Nc3cnc(NCc4ccc(F)cc4)nc3O)c3ccc(O)cc3)C(=O)N2[C@H]1C(=O)O (stereo partly drawn)", "system.name": "Proteus mirabilis Hamburgensis", "MIC [µg/mL]": 0.25}
{"compound": "CC1(C)S[C@@H]2[C@H](NC(=O)[C@H](NC(=O)Nc3cnccc3O)c3ccccc3)C(=O)N2[C@H]1C(=O)O [C, reference compound]", "system.name": "Proteus mirabilis Hamburgensis", "MIC [µg/mL]": 0.25}
{"compound": "CN(C)S(=O)(=O)c1ccc(Nc2ncc(NC(=O)N[C@@H](C(=O)N[C@@H]3C(=O)N4[C@@H]3SC(C)(C)[C@@H]4C(=O)O)c3ccc(O)cc3)c(O)n2)cc1", "system.name": "Proteus mirabilis Hamburgensis", "MIC [µg/mL]": 0.12}

* * *

Tested on: Pseudomonas aeruginosa Hamburgensis
Test: serial dilution test in microtiter system (bacteriostasis, MIC)
Type: cell-based
Details: liquid medium, 18 to 20 h at 37°C, read-out: MHK-Werte Pseud. aerug. Hbg.
Method: Für die Untersuchungen wurde die Methode des Reihenverdünnungstestes im Mikrotitersystem angewandt. Die Prüfung der Substanzen auf Bakteriostase erfolgte in flüssigem Medium. Es wurde die Bakteriostasewirkung bei folgenden Konzentrationen untersucht. Es wurde ein Nährboden folgender Zusammensetzung benutzt: 10 g Pepton, 8 g Fleischextrakt-Oxoid, 3 g Natriumschlorid, 2 g sek. Natriumphosphat werden mit dest. Wasser auf 1000 ml aufgefüllt (pH 7,2-7,4). […]
Recorded MIC, one value per entry.
measured.quantity: MIC (µg/mL)

{"molecule": "CC1(C)S[C@@H]2[C@H](NC(=O)[C@H](NC(=O)Nc3cnc(Nc4ccc(S(N)(=O)=O)cc4)nc3O)c3ccc(O)c(Cl)c3)C(=O)N2[C@H]1C(=O)O", "quantitative.result": 2}
{"molecule": "CC1(C)S[C@@H]2[C@H](NC(=O)[C@H](NC(=O)Nc3cnc(Nc4ccc(S(N)(=O)=O)cc4)nc3O)c3ccccc3)C(=O)N2[C@H]1C(=O)O", "quantitative.result": 1}
{"molecule": "CC1(C)S[C@@H]2[C@H](NC(=O)[C@H](NC(=O)Nc3cnc(Nc4ccc(S(N)(=O)=O)cc4)nc3O)c3ccc(O)c(O)c3)C(=O)N2[C@H]1C(=O)O", "quantitative.result": 4}
{"molecule": "CC1(C)S[C@@H]2[C@H](NC(=O)[C@H](NC(=O)N3CCN(S(C)(=O)=O)C3=O)c3ccccc3)C(=O)N2[C@H]1C(=O)O [B, Mezlocillin, reference compound]", "quantitative.result": 16}
{"molecule": "CC1(C)S[C@@H]2[C@H](NC(=O)C(NC(=O)Nc3cnc(NCc4ccc(S(N)(=O)=O)cc4)nc3O)c3ccc(O)cc3)C(=O)N2[C@H]1C(=O)O (some centres unmarked)", "quantitative.result": 2}
{"molecule": "CC1(C)SC2C(NC(=O)C(NC(=O)Nc3cnc(Nc4ccc(C(N)=O)cc4)nc3O)c3ccccc3)C(=O)N2C1C(=O)O (centres unmarked)", "quantitative.result": 1}
{"molecule": "CC1(C)S[C@@H]2[C@H](NC(=O)C(NC(=O)Nc3cnc(NCc4ccc(O)cc4)nc3O)c3ccc(O)cc3)C(=O)N2[C@H]1C(=O)O (some centres unmarked)", "quantitative.result": 2}
{"molecule": "CCN1CCN(C(=O)N[C@@H](C(=O)N[C@@H]2C(=O)N3[C@@H]2SC(C)(C)[C@@H]3C(=O)O)c2ccccc2)C(=O)C1=O [D, Piperacillin, reference compound]", "quantitative.result": 4}
{"molecule": "CC1(C)S[C@@H]2[C@H](NC(=O)C(NC(=O)Nc3cnc(NCc4ccc(F)cc4)nc3O)c3ccc(O)cc3)C(=O)N2[C@H]1C(=O)O (some centres unmarked)", "quantitative.result": 2}
{"molecule": "CC1(C)S[C@@H]2[C@H](NC(=O)C(NC(=O)Nc3cnc(NCc4ccccc4)nc3O)c3ccccc3)C(=O)N2[C@H]1C(=O)O (some centres unmarked)", "quantitative.result": 2}
{"molecule": "C[S+]([O-])c1ccc(Nc2ncc(NC(=O)NC(C(=O)NC3C(=O)N4C3SC(C)(C)C4C(=O)O)c3ccccc3)c(O)n2)cc1 (centres unmarked)", "quantitative.result": 2}

* * *

Recorded ED50, one value per entry.
tested on: E.coli ATCC 11 775; assay: experimental intraperitoneal infection in mice, ED50 (survival); assay type: in vivo, Mäuse; conditions: Escherichia coli, ATCC 11 / ATCC 1175, sc, 168 h; female NMRI mice, i.p. infection, s.c. application, treated once, 7 days observation
measured.quantity: ED50 (mg/kg)

{"compound": "CNC(=O)c1ccc(Nc2ncc(NC(=O)NC(C(=O)NC3C(=O)N4C3SC(C)(C)C4C(=O)O)c3ccc(O)cc3)c(O)n2)cc1 (stereo not drawn)", "measured.quantity": "ED50", "unit.tag": "mg/kg", "quantitative.result": 2.8}
{"compound": "CCN1CCN(C(=O)N[C@@H](C(=O)N[C@@H]2C(=O)N3[C@@H]2SC(C)(C)[C@@H]3C(=O)O)c2ccccc2)C(=O)C1=O [D, Piperacillin, reference compound]", "measured.quantity": "ED50", "unit.tag": "mg/kg", "quantitative.result": 89}
{"compound": "CC1(C)SC2C(NC(=O)C(NC(=O)Nc3cnc(Nc4ccc(C(N)=O)cc4)nc3O)c3ccccc3)C(=O)N2C1C(=O)O (stereo not drawn)", "measured.quantity": "ED50", "unit.tag": "mg/kg", "quantitative.result": 3.2}
{"compound": "CC1(C)S[C@@H]2[C@H](NC(=O)[C@H](NC(=O)Nc3cnc(Nc4ccc(S(N)(=O)=O)cc4)nc3O)c3ccccc3)C(=O)N2[C@H]1C(=O)O", "measured.quantity": "ED50", "unit.tag": "mg/kg", "quantitative.result": 3.9}
{"compound": "CC1(C)S[C@@H]2[C@H](NC(=O)C(NC(=O)Nc3cnc(Nc4ccc(C(N)=O)c(O)c4)nc3O)c3ccc(O)cc3)C(=O)N2[C@H]1C(=O)O (stereo partly drawn)", "measured.quantity": "ED50", "unit.tag": "mg/kg", "quantitative.result": 4}
{"compound": "CC1(C)S[C@@H]2[C@H](NC(=O)[C@H](NC(=O)Nc3cnc(Nc4ccc(S(N)(=O)=O)cc4)nc3O)c3ccc(O)c(O)c3)C(=O)N2[C@H]1C(=O)O", "measured.quantity": "ED50", "unit.tag": "mg/kg", "quantitative.result": 3.7}

* * *

Recorded ED50, one value per entry.
test system: E.coli ATCC 11 775; assay: experimental intraperitoneal infection in mice, ED50 (survival); type: in vivo, Mäuse; details: Escherichia coli, ATCC 11 / ATCC 1175, sc, 168 h; female NMRI mice, i.p. infection, s.c. application, treated once, 7 days observation

{"compound": "CC1(C)S[C@@H]2[C@H](NC(=O)[C@H](NC(=O)Nc3cnc(Nc4ccc(S(N)(=O)=O)cc4)nc3O)c3ccc(O)c(Cl)c3)C(=O)N2[C@H]1C(=O)O [Verbindung 4]", "ED50 [mg/kg]": 6.1}
{"compound": "CC1(C)S[C@@H]2[C@H](NC(=O)[C@H](NC(=O)Nc3cnc(Nc4ccc(S(N)(=O)=O)cc4)nc3O)C3=CCC=CC3)C(=O)N2[C@H]1C(=O)O [Verbindung 12]", "ED50 [mg/kg]": 5}
{"compound": "CNS(=O)(=O)c1ccc(Nc2ncc(NC(=O)N[C@@H](C(=O)N[C@@H]3C(=O)N4[C@@H]3SC(C)(C)[C@@H]4C(=O)O)c3ccc(O)cc3)c(O)n2)cc1 [Verbindung 7]", "ED50 [mg/kg]": 3.4}

Entry source: patent EP0051773A1
